# method_summary: DPPH radical scavenging assay (antioxidant)
# test_conditions: compound concentration 12.5 µM
Exercise: for every item that follows, state its recorded DPPH Scavenging Activity Inhibition (%).
Please give a number only; it is taken to be in %.

### Prompt Fill blank: measured DPPH Scavenging Activity Inhibition (%) of the compound O=c1c(O)c(-c2ccc(O)c(O)c2)oc2cc(O)cc(O)c12 [Quercetin, quercetin, reference compound] is ____.
### Response 22.31

### Prompt # get_value(readout='DPPH Scavenging Activity Inhibition (%)', item= CCOC(=O)[C@@H](Cc1ccc(O)c(O)c1)OC(=O)/C=C/c1ccc(O)c(O)c1 [Ethyl rosmarinate (S1), Ethyl rosmarinate] )
### Response 22.02

### Prompt Consider the compound O=C(/C=C/c1ccc(O)c(O)c1)O[C@H](Cc1ccc(O)c(O)c1)C(=O)O [Rosmarinic acid (3), Rosmarinic acid] and give its measured DPPH Scavenging Activity Inhibition (%).
### Response 19.05

### Prompt Please report the recorded DPPH Scavenging Activity Inhibition (%) for CCCOC(=O)[C@@H](Cc1ccc(O)c(O)c1)OC(=O)/C=C/c1ccc(O)c(O)c1 [Propyl rosmarinate (S2), Propyl rosmarinate] .
### Response 17.68

### Prompt I'd like to know its DPPH Scavenging Activity Inhibition (%). The compound in question is COc1ccc([C@@H]2CC(=O)c3c(O)cc(O[C@@H]4O[C@H](CO[C@@H]5O[C@@H](C)[C@H](O)[C@@H](O)[C@H]5O)[C@@H](O)[C@H](O)[C@H]4O)cc3O2)cc1O [Hesperidin (2), Hesperidin]
### Response 1.20

### Prompt Quick one: DPPH Scavenging Activity Inhibition (%) of COc1ccc(-c2cc(=O)c3c(O)cc(O)cc3o2)cc1O [Diosmetin (6), Diosmetin] ?
### Response 0.14

### Prompt Which DPPH Scavenging Activity Inhibition (%) value is on record for COc1ccc(-c2cc(=O)c3c(O)cc(O[C@@H]4O[C@H](CO[C@@H]5O[C@@H](C)[C@H](O)[C@@H](O)[C@H]5O)[C@@H](O)[C@H](O)[C@H]4O)cc3o2)cc1O [Diosmin (4), Diosmin] ?
### Response 0.31

### Prompt What value of DPPH Scavenging Activity Inhibition (%) has been recorded for this entry: O=C(O)/C=C/c1ccc(O)c(O)c1 [Caffeic acid (1), Caffeic acid]
### Response 8.60

### Prompt Find the recorded DPPH Scavenging Activity Inhibition (%) belonging to CCCCOC(=O)[C@@H](Cc1ccc(O)c(O)c1)OC(=O)/C=C/c1ccc(O)c(O)c1 [n-Butyl rosmarinate (7), n-Butyl rosmarinate] and report it.
### Response 19.98

### Prompt Reported DPPH Scavenging Activity Inhibition (%), compound COC(=O)[C@@H](Cc1ccc(O)c(O)c1)OC(=O)/C=C/c1ccc(O)c(O)c1 [Methyl rosmarinate (5), Methyl rosmarinate] : ____
### Response 18.68
